# TESTED_TARGET: recombinant BRD4(BD1 + BD2) (Homo sapiens, UniProt O60885)
# MEASUREMENT_PROTOCOL: BRD4 inhibition assay
# Type: binding
# CONDITION_PARAMETERS: read-out: Inhibition rate BRD4, 10 μmol/L; tested in duplicate, average
Assign inhibition at 10 µM to each entry below.
Numbers only, in %.

Worked set:
{"columns": ["COMPOUND", "ENDPOINT_UNIT", "inhibition at 10 µM"],
 "data": [
  ["COc1cc(OC)c2c(=O)[nH]c(-c3cc(C)c(OCCO)c(C)c3)nc2c1 [RVX-208, reference compound]", "%", 60],
  ["O=C(c1ccc(-c2nc3ccccc3c(=O)[nH]2)c(F)c1)N1CCn2c(nnc2C(F)(F)F)C1 [Compound 15d]", "%", 18],
  ["COc1cc(OC)c2c(=O)[nH]c(-c3ccc(OCCOc4ccccc4C(N)=O)c(F)c3)nc2c1 [Compound 19h]", "%", 62],
  ["COc1cc(OC)c2c(=O)[nH]c(-c3ccc(C(=O)N4CCn5c(nnc5C(F)(F)F)C4)cc3F)nc2c1 [Compound 15c]", "%", 30]
]}

For every item below, please supply its inhibition at 10 µM.
1. COc1cc(OC)c2c(=O)[nH]c(-c3cccc(C(=O)N4CCN(C(=O)C5CC5)CC4)c3)nc2c1 [Compound 11a]
2. O=C(c1ccc(-c2nc3ccccc3c(=O)[nH]2)c(F)c1)N1CCN(C(=O)C2CC2)CC1 [Compound 15b]
3. COc1cc(OC)c2c(=O)[nH]c(-c3ccc(OCCOc4ccccc4C(N)=O)cc3)nc2c1 [Compound 19d]
4. CNC(=O)c1ccc(-c2nc3cc(OC)cc(OC)c3c(=O)[nH]2)cc1
5. COc1cc(OC)c2c(=O)[nH]c(-c3ccc(OCCOc4ccncc4C(N)=O)cc3)nc2c1 [Compound 19u]
6. COc1cc(OC)c2c(=O)[nH]c(-c3cc(C)c(OCCOn4nnc5ccccc54)c(C)c3)nc2c1 [Compound 19i]

[50, 53, 92, 36, 77, 61]

Respectfully, I request inhibition at 10 µM for each entry included below.
1. COc1cc(OC)c2c(=O)[nH]c(-c3ccc(OCCOn4nnc5ccccc54)c(F)c3)nc2c1 [Compound 19l]
2. COc1cc(OC)c2c(=O)[nH]c(-c3cc(Cl)ccc3OCCCCOc3ccccc3C(N)=O)nc2c1 [Compound 19c]
3. CNC(=O)c1ccc(-c2nc3ccccc3c(=O)[nH]2)cc1
4. COc1cc(OC)c2c(=O)[nH]c(-c3cc(OC)c(OCCOc4ccccc4C(N)=O)c(OC)c3)nc2c1 [Compound 19g]
5. COc1cc(OC)c2c(=O)[nH]c(-c3ccc(N4CCOCC4)cc3)nc2c1
6. NC(=O)c1ccc(-c2nc3ccccc3c(=O)[nH]2)cc1

80
54
22
72
70
19

----------
Kindly supply the reported inhibition at 1 µM values for the records listed here.
# TESTED_TARGET: recombinant BRD4(BD1 + BD2) (Homo sapiens, UniProt O60885)
# MEASUREMENT_PROTOCOL: BRD4 inhibition assay
# Type: binding
# CONDITION_PARAMETERS: read-out: Inhibition rate BRD4, 1 μmol/L; tested in duplicate, average
One number for each entry, in %.

Examples with answers:
{"columns": ["COMPOUND", "TESTED_TARGET", "inhibition at 1 µM / %"],
 "data": [
  ["COc1cc(OC)c2c(=O)[nH]c(-c3cc(Cl)ccc3OCCCCOc3ccccc3C(N)=O)nc2c1 [Compound 19c]", "recombinant BRD4(BD1 + BD2) (Homo sapiens, UniProt O60885)", 7],
  ["NC(=O)c1ccc(-c2nc3ccccc3c(=O)[nH]2)cc1", "recombinant BRD4(BD1 + BD2) (Homo sapiens, UniProt O60885)", 2]
]}

Value sought for every listed compound: inhibition at 1 µM.
1. O=C(c1ccc(-c2nc3ccccc3c(=O)[nH]2)c(F)c1)N1CCN(C(=O)C2CC2)CC1 [Compound 15b]
2. COc1cc(OC)c2c(=O)[nH]c(-c3cc(OC)c(OCCOn4nnc5ccccc54)c(OC)c3)nc2c1 [Compound 19j]
3. COc1cc(OC)c2c(=O)[nH]c(-c3cc(C)c(OCCOc4ccc5cn[nH]c5c4)c(C)c3)nc2c1 [Compound 19m]
4. O=C(c1cccc(-c2nc3ccccc3c(=O)[nH]2)c1)N1CCN(C(=O)C2CC2)CC1 [Compound 11b]
5. COc1cc(OC)c2c(=O)[nH]c(-c3cc(OC)c(OCCOc4ccc5cn[nH]c5c4)c(OC)c3)nc2c1 [Compound 19n]

1. 4
2. 12
3. 15
4. 12
5. 14

Please give the documented inhibition at 1 µM of COc1cccc2nc(-c3ccc(C(=O)N4CCN(C(=O)C5CC5)CC4)cc3F)[nH]c(=O)c12 [Compound 15e]
9
